# ASSAY_SUMMARY: Fecal excretion rate in orally dosed Sprague-Dawley rat within 24 hrs
# Type: ADME, organism-based
# RECORDED_CONDITIONS: faeces, po, read-out: Activity
PROPERTY: dose excreted at 24 h (%)
Give just the numeric value; % need not be written.

Prompt: For the molecule COc1ccc(OC(=O)N(CC(=O)O)Cc2ccc(OCCc3nc(-c4ccccc4)oc3C)cc2)cc1 , give its measured dose excreted at 24 h value.
Response: 85

----------
# ASSAY_SUMMARY: Half life in Sprague-Dawley rat at 10 mg/kg, po after 24 hrs
# Format: ADME, organism-based
# Design: dose 10 mg/kg, route oral
# RECORDED_CONDITIONS: in vivo
PROPERTY: half-life (h)
Supply the numeric figure in h, leaving out any unit text.

Prompt: Provide half-life value for the following molecule: COc1ccc(OC(=O)N(CC(=O)O)Cc2ccc(OCCc3nc(-c4ccccc4)oc3C)cc2)cc1 [MURAGLITAZAR]
Response: 3.8

----------
# ASSAY_SUMMARY: Half life in human at 10 mg, po after 192 hrs
# Format: ADME, organism-based
# RECORDED_CONDITIONS: in vivo
PROPERTY: half-life (h)
Number in h, nothing else.

Prompt: Read the entry COc1ccc(OC(=O)N(CC(=O)O)Cc2ccc(OCCc3nc(-c4ccccc4)oc3C)cc2)cc1.Cl [MURAGLITAZAR CHLORIDE] and write its reported half-life.
Response: 35.1

----------
Entries and their pEC50
# TARGET_OR_SYSTEM: Peroxisome proliferator-activated receptor alpha (Homo sapiens)
# Sequence (Q07869 whole entry): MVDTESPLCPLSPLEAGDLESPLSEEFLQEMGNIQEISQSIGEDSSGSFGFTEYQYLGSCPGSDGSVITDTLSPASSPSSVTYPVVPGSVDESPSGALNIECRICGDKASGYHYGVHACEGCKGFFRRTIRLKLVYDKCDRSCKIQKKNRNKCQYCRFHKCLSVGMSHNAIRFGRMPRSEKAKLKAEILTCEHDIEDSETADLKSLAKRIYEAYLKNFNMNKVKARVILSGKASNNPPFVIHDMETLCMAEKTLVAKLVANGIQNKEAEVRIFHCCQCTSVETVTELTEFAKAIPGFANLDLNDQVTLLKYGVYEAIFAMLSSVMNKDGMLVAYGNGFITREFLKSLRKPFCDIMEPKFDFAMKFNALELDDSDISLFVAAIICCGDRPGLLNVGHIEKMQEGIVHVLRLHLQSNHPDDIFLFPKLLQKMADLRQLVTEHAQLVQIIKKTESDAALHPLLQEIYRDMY
# ASSAY_SUMMARY: Agonist activity at PPAR alpha in human HEK cells by transactivation assay
pEC50: −log10 of the molar value.

{"columns": ["COMPOUND", "pEC50"],
 "data": [
  ["COc1ccc(OC(=O)N(CC(=O)O)Cc2ccc(OCCC(=O)N(C(C)=O)C(=O)c3ccccc3)cc2)cc1", "< 4.60"],
  ["COc1ccc(OC(=O)N(CC(=O)O)Cc2ccc(O)cc2)cc1", "< 4.60"],
  ["COc1ccc(OC(=O)N(CC(=O)O)Cc2ccc(OCCc3nc(-c4ccccc4)oc3C)cc2)cc1.Cl [MURAGLITAZAR CHLORIDE]", 7.46]
]}

Continue with the next compound.
Prompt: Tell me measured pEC50 for COc1ccc(OC(=O)N(CC(=O)O)Cc2ccc(OCCC(=O)NC(=O)c3ccccc3)cc2)cc1 please.
Response: < 4.60

The measured values listed here are drawn from ChEMBL document CHEMBL1147043.
